Test system: Nitric oxide synthase, inducible (Homo sapiens)
Sequence (P35228 whole entry): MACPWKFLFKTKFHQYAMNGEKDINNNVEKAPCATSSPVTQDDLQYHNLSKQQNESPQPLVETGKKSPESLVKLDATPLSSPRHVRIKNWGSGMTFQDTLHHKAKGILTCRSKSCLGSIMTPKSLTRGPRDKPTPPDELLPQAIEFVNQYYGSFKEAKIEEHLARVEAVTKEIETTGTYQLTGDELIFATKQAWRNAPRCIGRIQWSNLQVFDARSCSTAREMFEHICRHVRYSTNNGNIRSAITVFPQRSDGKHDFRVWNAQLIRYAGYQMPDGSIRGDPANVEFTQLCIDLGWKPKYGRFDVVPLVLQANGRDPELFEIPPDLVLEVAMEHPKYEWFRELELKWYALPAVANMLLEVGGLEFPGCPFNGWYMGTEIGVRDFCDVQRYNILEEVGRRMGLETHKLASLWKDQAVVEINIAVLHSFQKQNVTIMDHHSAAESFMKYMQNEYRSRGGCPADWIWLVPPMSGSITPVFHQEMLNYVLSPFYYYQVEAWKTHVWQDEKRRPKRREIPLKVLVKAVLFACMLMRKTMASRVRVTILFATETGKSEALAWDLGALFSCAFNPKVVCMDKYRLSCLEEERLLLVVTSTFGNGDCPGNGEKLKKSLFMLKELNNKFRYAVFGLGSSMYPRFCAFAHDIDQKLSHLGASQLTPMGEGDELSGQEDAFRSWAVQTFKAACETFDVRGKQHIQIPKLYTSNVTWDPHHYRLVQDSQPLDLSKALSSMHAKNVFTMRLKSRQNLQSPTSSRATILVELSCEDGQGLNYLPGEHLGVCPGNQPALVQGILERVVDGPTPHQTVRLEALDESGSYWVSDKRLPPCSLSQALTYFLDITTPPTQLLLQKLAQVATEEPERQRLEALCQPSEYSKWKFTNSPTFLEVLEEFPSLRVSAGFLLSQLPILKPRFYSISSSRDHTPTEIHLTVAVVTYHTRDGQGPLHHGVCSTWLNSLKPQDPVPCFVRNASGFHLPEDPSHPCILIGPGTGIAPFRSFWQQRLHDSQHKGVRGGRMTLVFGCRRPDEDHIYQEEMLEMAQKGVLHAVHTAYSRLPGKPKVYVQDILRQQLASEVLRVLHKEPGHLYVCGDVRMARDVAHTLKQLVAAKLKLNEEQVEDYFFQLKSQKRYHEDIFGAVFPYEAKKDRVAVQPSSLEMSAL
Measured metric: pIC50
Answers are plain numbers, as −log10 of the molar value.

Record pIC50 for all entries; do not skip any.
1. N=C(Nc1ccc2sc(NCCc3ccccn3)nc2c1)c1cccs1
2. NC(=Nc1ccc2sc(NC3CCN(Cc4ccccc4)CC3)nc2c1)c1cccs1
3. CCSC(N)=Nc1ccc2sc(N)nc2c1

1. 3.86
2. 4.32
3. 4.01

* * *

Test system: Nitric oxide synthase, inducible (Homo sapiens)
Test: Inhibition of human inducible NOS activity
Measured metric: IC50 (µM)
Answers are plain numbers, in µM.

Take a look at these entries with their results.
Field request: IC50 | item: N=C(Nc1ccc2nc(N)sc2c1)c1cccs1
25

Field request: IC50 | item: N=C(Nc1ccc2sc(NC3CCN(Cc4ccc(F)cc4)CC3)nc2c1)c1cccs1
91

// switching to the query compound
Field request: IC50 | item: COc1ccc(CN2CCC(Nc3nc4ccc(N=C(N)c5cccs5)cc4s3)CC2)cc1
9
